These data points were gathered from ChEMBL document CHEMBL1143771.

- System: Hepatitis C virus
- assayNotes: Antiviral activity against Hepatitis C virus by cell based replicon assay
- Assay type: functional, organism-based, Hepacivirus hominis
Consider the following compounds and their measured pEC50 readings.
Just so you know, pEC50 here is -log10 of the concentration in molar units; reply with that number alone.

Some entries whose results are on file:
N#Cc1c(O)nsc1Nc1cc(F)cc(F)c1 | 6.66
N#Cc1c(O)nsc1Nc1cc(Cl)cc(Cl)c1 | 7.00
N#Cc1c(O)nsc1Nc1cc(F)ccc1Oc1ccccc1 | 5.47
N#Cc1c(O)nsc1Nc1cccc(F)c1 | 5.54
N#Cc1c(O)nsc1Nc1ccc(I)cc1 | 5.96

stdin: Looking for the measured pEC50 of N#Cc1c(O)nsc1Nc1cc(C(F)(F)F)cc(C(F)(F)F)c1 , can you help?
stdout: 5.70

====

- assayNotes: Inhibition of HCV recombinant NS5B polymerase
- Parameters: species or system Hepacivirus hominis
quantity: IC50

Some entries whose results are on file:
N#Cc1c(O)nsc1Nc1ccc(I)cc1 | 1.2 µM
N#Cc1c(O)nsc1Nc1ccccc1Oc1ccccc1 | 1.3 µM

stdin: Looking for the measured IC50 of N#Cc1c(O)nsc1Nc1cc(Cl)ccc1OCc1ccccc1 , can you help?
stdout: 1 µM
